# method.description: log P by HPLC on reversed-phase column (C 18), EEC Directive 79/831 Annex V.A8
# Type: physicochemical
# protocol.conditions: 40° C., 0.1% aqueous formic acid and acetonitrile, linear gradient 10% to 90% acetonitrile
attribute.measured: logP

* C[Si](C)(CN(C(=O)c1nccnc1C(F)(F)F)C1CC1)c1cccs1 [Example 82] | 4.01
* C[Si](C)(CNC(=O)c1nccnc1C(F)(F)F)c1ccccc1Cl [Example 41] | 3.50
* C[Si](C)(Cc1ccccc1Cl)CN(C(=O)c1cccnc1C(F)F)C1CC1 [Example 98] | 4.11
* C[Si](C)(Cc1cccc(Cl)c1)CN(C(=O)c1cccnc1C(F)(F)F)C1CC1 [Example 109] | 4.61
* C[Si](C)(CN(C(=O)c1ccccc1C(F)(F)F)C1CC1)c1cccc(Cl)c1 [Example 31] | 5.03
* CCc1ccccc1[Si](C)(C)CN(C(=O)c1nccnc1C(F)(F)F)C1CC1 [Example 21] | 4.77
* C[Si](C)(CN(C(=O)c1ccccc1C(F)(F)F)C1CC1)c1ccccc1Cl [Example 25] | 5.03
* C[Si](C)(CNC(=O)c1cccnc1C(F)F)c1cc(Cl)cc(Cl)c1 [Example 63] | 3.69
* C[Si](C)(CN(C(=O)c1ccccc1C(F)(F)F)C1CC1)c1cccc2ccccc12 [Example 71] | 5.19
* C[Si](C)(Cc1cc(Cl)cc(Cl)c1)CN(C(=O)c1cccnc1C(F)(F)F)C1CC1 [Example 121] | 5.22
* C[Si](C)(CN(C(=O)c1cccnc1C(F)F)C1CC1)c1ccc2ccccc2c1 [Example 79] | 4.11
* C[Si](C)(CN(C(=O)c1cccnc1Cl)C1CC1)c1ccccc1 [Example 4] | 3.50
* C[Si](C)(CN(C(=O)c1cccnc1Cl)C1CC1)c1ccccc1F [Example 17] | 3.58
* C[Si](C)(CN(C(=O)c1cccnc1C(F)(F)F)C1CC1)c1ccccc1C(F)(F)F [Example 55] | 4.39
* C[Si](C)(CN(C(=O)c1cccnc1C(F)(F)F)C1CC1)c1cccc2ccccc12 [Example 73] | 4.51
* C[Si](C)(CNC(=O)c1cccnc1Cl)c1ccccc1Cl [Example 40] | 2.94
* C[Si](C)(CN(C(=O)c1cccnc1C(F)(F)F)C1CC1)c1cc(Cl)cc(Cl)c1 [Example 67] | 4.95
* C[Si](C)(CN(C(=O)c1ccccc1C(F)(F)F)C1CC1)c1cccs1 [Example 85] | 4.51

====

# method.description: log P by HPLC on reversed-phase column (C 18), EEC Directive 79/831 Annex V.A8
# Assay type: physicochemical
# protocol.conditions: 40° C., 0.1% aqueous formic acid and acetonitrile, linear gradient 10% to 90% acetonitrile
attribute.measured: chromatographic logP

- C[Si](C)(CNC(=O)c1cccnc1C(F)F)c1ccccc1: 2.71

====

Property: logP; scope: individual molecules
# method.description: log P by HPLC on reversed-phase column (C 18), EEC Directive 79/831 Annex V.A8
# Assay type: physicochemical
# protocol.conditions: 40° C., 0.1% aqueous formic acid and acetonitrile, linear gradient 10% to 90% acetonitrile
attribute.measured: logP

- C[Si](C)(CN(C(=O)c1nccnc1C(F)(F)F)C1CC1)c1cc(Cl)cc(Cl)c1: 4.95
- C[Si](C)(CN(C(=O)c1cccnc1C(F)F)C1CC1)c1ccsc1: 3.27
- C[Si](C)(CN(C(=O)c1nccnc1C(F)(F)F)C1CC1)c1ccccc1Cl: 4.56
- C[Si](C)(Cc1cc(Cl)cc(Cl)c1)CN(C(=O)c1ccccc1I)C1CC1: 6.14
- C[Si](C)(CN(C(=O)c1cccnc1C(F)F)C1CC1)c1ccccc1C(F)(F)F: 3.94
- C[Si](C)(Cc1cc(Cl)cc(Cl)c1)CN(C(=O)c1cccnc1Cl)C1CC1: 4.92
- C[Si](C)(Cc1cccc(Cl)c1)CN(C(=O)c1cccnc1Cl)C1CC1: 4.30
- C[Si](C)(Cc1cccc(Cl)c1)CN(C(=O)c1nccnc1C(F)(F)F)C1CC1: 4.82
- C[Si](C)(Cc1ccccc1)CN(C(=O)c1ccccc1I)C1CC1: 5.00
- Cc1ccccc1[Si](C)(C)CN(C(=O)c1cccnc1C(F)(F)F)C1CC1: 4.18
- C[Si](C)(CN(C(=O)c1ccccc1I)C1CC1)c1cccc(Cl)c1: 5.14
- C[Si](C)(CN(C(=S)c1cccnc1C(F)F)C1CC1)c1ccc2ccccc2c1: 4.72
- C[Si](C)(Cc1ccc(Cl)cc1Cl)CN(C(=O)c1ccccc1I)C1CC1: 6.14
- C[Si](C)(CN(C(=O)c1cccnc1C(F)(F)F)C1CC1)c1ccsc1: 3.72
- C[Si](C)(CN(C(=O)c1cccnc1Cl)C1CC1)c1cc(Cl)cc(Cl)c1: 4.61
- C[Si](C)(Cc1ccccc1Cl)CN(C(=O)c1ccccc1C(F)(F)F)C1CC1: 5.31
- C[Si](C)(Cc1ccc(Cl)cc1Cl)CN(C(=O)c1cccnc1C(F)F)C1CC1: 4.74
- C[Si](C)(Cc1cccc(Cl)c1)CN(C(=O)c1ccccc1I)C1CC1: 5.45
- C[Si](C)(CN(C(=O)c1cccnc1C(F)F)C1CC1)c1cc(F)ccc1Cl: 3.89
- C[Si](C)(CN(C(=O)c1cccnc1C(F)(F)F)C1CC1)c1cc(F)ccc1Cl: 4.34
- C[Si](C)(Cc1cc(Cl)cc(Cl)c1)CN(C(=O)c1nccnc1C(F)(F)F)C1CC1: 5.45
- C[Si](C)(CN(C(=O)c1ccccc1C(F)(F)F)C1CC1)c1ccc(Cl)cc1Cl: 5.72
- CC[Si](C)(CN(C(=O)c1cccnc1Cl)C1CC1)c1ccccc1Cl (centres unmarked): 4.34
- C[Si](C)(CN(C(=O)c1cccnc1C(F)F)C1CC1)c1ccc(F)cc1Cl: 3.96
- C[Si](C)(CNC(=O)c1cccnc1C(F)F)c1ccc(Cl)cc1Cl: 3.64
- CC1=C(C(=O)NC[Si](C)(C)c2ccccc2)SCCO1: 3.13
- C[Si](C)(CN(C(=O)c1nccnc1C(F)(F)F)C1CC1)c1ccccc1F: 4.18
- C[Si](C)(CN(C(=O)c1cccnc1C(F)(F)F)C1CC1)c1ccccc1Cl: 4.31
- CCc1ccccc1[Si](C)(C)CN(C(=O)c1cccnc1Cl)C1CC1: 4.16
- CC[Si](C)(CN(C(=O)c1nccnc1C(F)(F)F)C1CC1)c1ccccc1Cl (centres unmarked): 4.95
- C[Si](C)(CN(C(=S)c1nccnc1C(F)(F)F)C1CC1)c1ccc2ccccc2c1: 5.35
- Cc1ccccc1[Si](C)(C)CN(C(=O)c1nccnc1C(F)(F)F)C1CC1: 4.41
- CC1=C(C(=O)N(C[Si](C)(C)c2ccccc2Cl)C2CC2)SCCO1: 4.29
- Cc1ccccc1[Si](C)(C)CN(C(=O)c1cccnc1Cl)C1CC1: 3.80
- CCc1ccccc1[Si](C)(C)CN(C(=O)c1cccnc1C(F)F)C1CC1: 4.06
